- Test system: Staphylococcus aureus
- PROTOCOL: Antimicrobial activity against Staphylococcus aureus MTCC 3160 after 24 hrs by broth dilution method
- Format: functional
- CONDITION: MTCC 3160, 24 h
Measured MIC of individual entries
The number alone won't do; follow it with the unit.

[
  {
    "ENTRY SMILES": "CCCn1c(-c2ccc(Cl)cc2Cl)nc2cc(C(=O)N/N=C/c3cc(C)c(O)c(C)c3)ccc21",
    "MIC": "12.5 µg/mL"
  },
  {
    "ENTRY SMILES": "CCCn1c(-c2ccc(Cl)cc2Cl)nc2cc(C(=O)N/N=C/c3ccc([N+](=O)[O-])cc3)ccc21",
    "MIC": "12.5 µg/mL"
  },
  {
    "ENTRY SMILES": "CCCn1c(-c2ccc(Cl)cc2Cl)nc2cc(C(=O)N/N=C/c3cccc(Cl)c3Cl)ccc21",
    "MIC": "12.5 µg/mL"
  },
  {
    "ENTRY SMILES": "CCCn1c(-c2ccc(Cl)cc2Cl)nc2cc(C(=O)N/N=C/c3cccc(Br)c3)ccc21",
    "MIC": "6.25 µg/mL"
  },
  {
    "ENTRY SMILES": "CCCn1c(-c2ccc(Cl)cc2Cl)nc2cc(C(=O)N/N=C/c3ccc(Cl)cc3Cl)ccc21",
    "MIC": "25 µg/mL"
  },
  {
    "ENTRY SMILES": "CCCn1c(-c2ccc(Cl)cc2Cl)nc2cc(C(=O)N/N=C/c3ccccc3F)ccc21",
    "MIC": "12.5 µg/mL"
  },
  {
    "ENTRY SMILES": "CCCn1c(-c2ccc(Cl)cc2Cl)nc2cc(C(=O)N/N=C/c3ccc(Cl)cc3)ccc21",
    "MIC": "50 µg/mL"
  },
  {
    "ENTRY SMILES": "CCCn1c(-c2ccc(Cl)cc2Cl)nc2cc(C(=O)N/N=C/c3cccc([N+](=O)[O-])c3)ccc21",
    "MIC": "12.5 µg/mL"
  },
  {
    "ENTRY SMILES": "CCCn1c(-c2ccc(Cl)cc2Cl)nc2cc(C(=O)N/N=C/c3ccc(N(C)C)cc3)ccc21",
    "MIC": "12.5 µg/mL"
  },
  {
    "ENTRY SMILES": "CCCn1c(-c2ccc(Cl)cc2Cl)nc2cc(C(=O)N/N=C/c3ccccc3)ccc21",
    "MIC": "50 µg/mL"
  }
]

Query string: State the recorded MIC for this entry: `CCCn1c(-c2ccc(Cl)cc2Cl)nc2cc(C(=O)N/N=C/c3cccc(Cl)c3)ccc21`
Result string: 25 µg/mL

* * *

Quick list: zone of inhibition at 5000 µg/mL per entry.
- System: Candida albicans
- PROTOCOL: Antifungal activity against Candida albicans MTCC 461 assessed as zone of inhibition at 5 mg/ml after 24 hrs by agar well diffusion method
- Assay type: functional
- CONDITION: MTCC 461, 24 h, read-out: IZ
Enter your answer as a number in mm; do not include the unit.

Please review the entries below; each comes with its answer.
[
  {
    "COMPOUND": "CCCn1c(-c2ccc(Cl)cc2Cl)nc2cc(C(=O)N/N=C/c3cccc(Br)c3)ccc21",
    "OUTCOME MEASURE": "zone of inhibition at 5000 µg/mL",
    "RESULT VALUE": 16
  },
  {
    "COMPOUND": "CCCn1c(-c2ccc(Cl)cc2Cl)nc2cc(C(=O)N/N=C/c3ccc(Cl)cc3Cl)ccc21",
    "OUTCOME MEASURE": "zone of inhibition at 5000 µg/mL",
    "RESULT VALUE": 15
  }
]

Query string: Any idea what its zone of inhibition at 5000 µg/mL is? The compound is `CCCn1c(-c2ccc(Cl)cc2Cl)nc2cc(C(=O)N/N=C/c3cc(C)c(O)c(C)c3)ccc21`
Result string: 14

Query string: // repeat for `CCCn1c(-c2ccc(Cl)cc2Cl)nc2cc(C(=O)N/N=C/c3ccc(N(C)C)cc3)ccc21` and report
Result string: 16

Query string: Now consider `CCCn1c(-c2ccc(Cl)cc2Cl)nc2cc(C(=O)N/N=C/c3cccc(Cl)c3)ccc21` .
Result string: 10

Query string: Here is the next compound: `CCCn1c(-c2ccc(Cl)cc2Cl)nc2cc(C(=O)N/N=C/c3cc(Br)ccc3O)ccc21`
Result string: 21

Query string: And for `CCCn1c(-c2ccc(Cl)cc2Cl)nc2cc(C(=O)N/N=C/c3ccccc3Cl)ccc21` ?
Result string: 17

Query string: Now the compound `CCCn1c(-c2ccc(Cl)cc2Cl)nc2cc(C(=O)N/N=C/c3ccc(C)cc3)ccc21`
Result string: 16

Query string: Continue with `CCCn1c(-c2ccc(Cl)cc2Cl)nc2cc(C(=O)N/N=C/c3ccc(OC)cc3)ccc21`
Result string: 15

Query string: Could you do the same for `CCCn1c(-c2ccc(Cl)cc2Cl)nc2cc(C(=O)N/N=C/c3ccc([N+](=O)[O-])cc3)ccc21` , please?
Result string: 13

Query string: Next record, please: `CCCn1c(-c2ccc(Cl)cc2Cl)nc2cc(C(=O)N/N=C/c3ccc(Br)cc3)ccc21`
Result string: 15

Query string: Cool, now `CCCn1c(-c2ccc(Cl)cc2Cl)nc2cc(C(=O)N/N=C/c3cccc([N+](=O)[O-])c3)ccc21`
Result string: 17

Query string: What do we get for `CCCn1c(-c2ccc(Cl)cc2Cl)nc2cc(C(=O)N/N=C/c3ccc(Cl)cc3)ccc21` ?
Result string: 17

Query string: What do we get for `CCCn1c(-c2ccc(Cl)cc2Cl)nc2cc(C(=O)N/N=C/c3ccc(F)cc3)ccc21` ?
Result string: 18

Query string: Another compound to look at: `CCCn1c(-c2ccc(Cl)cc2Cl)nc2cc(C(=O)N/N=C/c3ccccc3[N+](=O)[O-])ccc21`
Result string: 14

* * *

- Tested on: Staphylococcus aureus
- PROTOCOL: Antimicrobial activity against Staphylococcus aureus MTCC 3160 assessed as zone of inhibition at 5 mg/ml after 24 hrs by agar well diffusion method
- Format: functional
- CONDITION: MTCC 3160, 24 h, read-out: IZ
OUTCOME MEASURE: zone of inhibition at 5000 µg/mL (mm)
Only the number, expressed in mm, is required.

[
  {
    "COMPOUND": "CCCn1c(-c2ccc(Cl)cc2Cl)nc2cc(C(=O)N/N=C/c3ccc(N(C)C)cc3)ccc21",
    "zone of inhibition at 5000 µg/mL / mm": 17
  },
  {
    "COMPOUND": "CCCn1c(-c2ccc(Cl)cc2Cl)nc2cc(C(=O)N/N=C/c3ccc(F)cc3)ccc21",
    "zone of inhibition at 5000 µg/mL / mm": 20
  }
]

Query string: Fill blank: measured zone of inhibition at 5000 µg/mL of the compound `CCCn1c(-c2ccc(Cl)cc2Cl)nc2cc(C(=O)N/N=C/c3ccccc3)ccc21` is ____.
Result string: 12

Query string: Repeat for the following compound: CC1(C)S[C@@H]2[C@H](NC(=O)[C@H](N)c3ccccc3)C(=O)N2[C@H]1C(=O)O [AMPICILLIN]
Result string: 26

Query string: What do we get for `CCCn1c(-c2ccc(Cl)cc2Cl)nc2cc(C(=O)N/N=C/c3cccc(Cl)c3Cl)ccc21` ?
Result string: 17

Query string: Same question for `CCCn1c(-c2ccc(Cl)cc2Cl)nc2cc(C(=O)N/N=C/c3ccc(Cl)cc3Cl)ccc21` please.
Result string: 15

* * *

compounds and their reported log10 MIC
- System: Staphylococcus aureus
- PROTOCOL: Antimicrobial activity against Staphylococcus aureus MTCC 3160 after 24 hrs by broth dilution method
- Format: functional
- CONDITION: MTCC 3160, 24 h
Kindly note that the scale is log10 and the underlying MIC is in µg/mL.

[
  {
    "COMPOUND": "CCCn1c(-c2ccc(Cl)cc2Cl)nc2cc(C(=O)N/N=C/c3ccc(C)cc3)ccc21",
    "log10 MIC": 0.80
  },
  {
    "COMPOUND": "CCCn1c(-c2ccc(Cl)cc2Cl)nc2cc(C(=O)N/N=C/c3ccccc3Cl)ccc21",
    "log10 MIC": 1.40
  },
  {
    "COMPOUND": "CCCn1c(-c2ccc(Cl)cc2Cl)nc2cc(C(=O)N/N=C/c3ccc(Br)cc3)ccc21",
    "log10 MIC": 1.10
  }
]

Query string: Reported log10 MIC, compound `CCCn1c(-c2ccc(Cl)cc2Cl)nc2cc(C(=O)N/N=C/c3cc(Br)ccc3O)ccc21` : ____
Result string: 0.49

Query string: Repeat with `CCCn1c(-c2ccc(Cl)cc2Cl)nc2cc(C(=O)N/N=C/c3ccccc3[N+](=O)[O-])ccc21`
Result string: 1.40

Query string: Query `CCCn1c(-c2ccc(Cl)cc2Cl)nc2cc(C(=O)N/N=C/c3ccc(OC)cc3)ccc21` next
Result string: 1.10

Query string: And what about the compound CC1(C)S[C@@H]2[C@H](NC(=O)[C@H](N)c3ccccc3)C(=O)N2[C@H]1C(=O)O [AMPICILLIN] ?
Result string: 0.19

Query string: Another compound to check: `CCCn1c(-c2ccc(Cl)cc2Cl)nc2cc(C(=O)N/N=C/c3ccc(F)cc3)ccc21`
Result string: 0.80
